Cited source: paper PMC8809517

- TESTED ON: T1, GFP-9S library array, motif 4 ND N98Y;D124H (synthetic construct, N98Y;D124H)
- T1 chain: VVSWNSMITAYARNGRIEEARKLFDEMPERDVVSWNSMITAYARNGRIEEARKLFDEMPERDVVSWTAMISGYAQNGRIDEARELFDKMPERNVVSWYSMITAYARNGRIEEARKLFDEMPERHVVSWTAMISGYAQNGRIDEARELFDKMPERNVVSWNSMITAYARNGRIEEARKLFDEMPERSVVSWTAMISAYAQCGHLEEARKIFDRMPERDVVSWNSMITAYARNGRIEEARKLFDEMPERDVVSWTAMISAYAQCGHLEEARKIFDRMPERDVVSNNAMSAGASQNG
- ASSAY METHOD TEXT: high-throughput RNA pulldown from lysate on Ni-NTA beads; HRP: 50 mM Tris pH 8, 150 mM NaCl, 1 mM beta-mercaptoethanol, 50 ug/ml BSA, 3 ug/ml yeast RNA, 0.5% heparin; ITC and FP: Tris pH 8, 200 mM KCl, 5% glycerol; MST: 50 mM Tris pH 8, 200 mM NaCl, 1 mM DTT, BSA, heparin, 0.05% Tween 20
- DETAILS: tags: N-terminal His-eGFP; label: 5' IRDye 800CW
Field: Kd. Provide a value for each of the binders that follow.
Please respond with the number in nM and leave the unit unwritten.

Kindly note the recorded Kd for AUUAAACGUGA (ssRNA) [IR-rpoA-A] , which is 111

Kindly note the recorded Kd for AUUAUACGUGA (ssRNA) [IR-rpoA-U] , which is 169
